Reported MIC E. coli 058 values for a set of compounds
# System: Escherichia coli
# Format: cell-based
# test conditions: strain 058

| compound | unit spec | MIC E. coli 058 |
| --- | --- | --- |
| CC(C)C[C@@H]1NC(=O)[C@@H](CC2CCCCC2)NC(=O)[C@H](CCN)NC(=O)[C@@H](NC(=O)[C@H](CCN)NC(=O)[C@@H](NC(=O)CC(CN)CC2CCCCC2)[C@@H](C)O)CCNC(=O)[C@H]([C@@H](C)O)NC(=O)[C@H](CCN)NC(=O)[C@H](CCN)NC1=O (single isomer, unassigned; isomer 1) [Example 91] | µg/mL | 4 |
| CC(C)C[C@@H]1NC(=O)[C@@H](CC2CCCCC2)NC(=O)[C@H](CCN)NC(=O)[C@@H](NC(=O)[C@H](CCN)NC(=O)[C@@H](NC(=O)CC(CN)C2CCCCC2)[C@@H](C)O)CCNC(=O)[C@H]([C@@H](C)O)NC(=O)[C@H](CCN)NC(=O)[C@H](CCN)NC1=O (single isomer, unassigned; isomer 2) [Example 87] | µg/mL | 4 |
| CC(C)C[C@@H]1NC(=O)[C@@H](CC2CCCCC2)NC(=O)[C@H](CCN)NC(=O)[C@@H](NC(=O)[C@H](CCN)NC(=O)[C@@H](NC(=O)CC(CN)c2ccccc2)[C@@H](C)O)CCNC(=O)[C@H]([C@@H](C)O)NC(=O)[C@H](CCN)NC(=O)[C@H](CCN)NC1=O (single isomer, unassigned; isomer 2) [Example 57] | µg/mL | 16 |

Origin of values: patent US12146004B2
